Recorded pIC50, one value per entry.
- assayedSystem: Tyrosine-protein kinase receptor UFO (Mus musculus)
- Sequence (Q00993 whole entry): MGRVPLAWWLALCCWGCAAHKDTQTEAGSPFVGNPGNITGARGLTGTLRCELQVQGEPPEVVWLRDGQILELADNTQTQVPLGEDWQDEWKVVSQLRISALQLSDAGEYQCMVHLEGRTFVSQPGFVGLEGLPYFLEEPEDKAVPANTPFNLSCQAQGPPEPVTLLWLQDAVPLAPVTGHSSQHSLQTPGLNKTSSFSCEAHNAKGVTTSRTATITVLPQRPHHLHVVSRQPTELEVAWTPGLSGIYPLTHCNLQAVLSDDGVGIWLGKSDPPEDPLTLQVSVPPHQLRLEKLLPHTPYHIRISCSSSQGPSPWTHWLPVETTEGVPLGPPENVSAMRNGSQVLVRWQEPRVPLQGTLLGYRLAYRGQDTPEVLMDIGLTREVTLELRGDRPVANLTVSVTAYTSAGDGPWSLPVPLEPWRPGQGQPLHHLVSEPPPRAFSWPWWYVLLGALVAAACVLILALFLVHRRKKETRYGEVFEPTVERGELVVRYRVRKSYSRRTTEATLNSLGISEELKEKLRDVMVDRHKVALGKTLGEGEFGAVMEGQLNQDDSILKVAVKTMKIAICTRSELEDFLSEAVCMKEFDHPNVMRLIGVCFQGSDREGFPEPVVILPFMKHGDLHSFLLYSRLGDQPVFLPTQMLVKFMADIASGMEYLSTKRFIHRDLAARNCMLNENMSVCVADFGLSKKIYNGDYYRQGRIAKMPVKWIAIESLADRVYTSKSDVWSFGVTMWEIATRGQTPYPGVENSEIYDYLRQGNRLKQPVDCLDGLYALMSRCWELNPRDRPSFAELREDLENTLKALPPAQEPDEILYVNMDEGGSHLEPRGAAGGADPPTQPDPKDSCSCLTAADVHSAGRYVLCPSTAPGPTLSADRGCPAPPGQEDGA
- testSummary: Inhibition of Axl in mouse BaF3 cells
pIC50: −log10 of the molar value.
readoutLabel: pIC50

• CC(C)Cn1cc(C(=O)Nc2ccc(Oc3ncnc4c3CCN(CC3CCN(C)CC3)C4)c(F)c2)c(=O)n(-c2ccc(F)cc2)c1=O = 7.34
• CC(C)n1cc(C(=O)Nc2ccc(Oc3ncnc4c3CN(C(=O)C3CC3)C4)c(F)c2)c(=O)n(-c2ccc(F)cc2)c1=O = 7.92
• CC(C)n1cc(C(=O)Nc2ccc(Oc3ncnc4c3CCN(CC3CN(C)C3)C4)c(F)c2)c(=O)n(-c2ccc(F)cc2)c1=O = 7.66
• CC(C)n1cc(C(=O)Nc2ccc(Oc3ncnc4c3CN(C(=O)CN3CCN(C)CC3)C4)c(F)c2)c(=O)n(-c2ccc(F)cc2)c1=O = 7.38
• CC(C)n1cc(C(=O)Nc2ccc(Oc3ncnc4c3CCN(C3CN(C)C3)C4)c(F)c2)c(=O)n(-c2ccc(F)cc2)c1=O = 8.28
• CN1CCC(CN2CCc3c(ncnc3Oc3ccc(NC(=O)c4cn(C5CCCC5)c(=O)n(-c5ccc(F)cc5)c4=O)cc3F)C2)CC1 = 8.10
• Cc1ccc(-n2c(=O)c(C(=O)Nc3ccc(Oc4ncnc5c4CCN(CC4CCN(C)CC4)C5)c(F)c3)cn(C3CCCC3)c2=O)nc1 = 7.55
• CC(C)n1cc(C(=O)Nc2ccc(Oc3ncnc4c3CN(C(=O)CC3CCN(C)CC3)C4)c(F)c2)c(=O)n(-c2ccc(F)cc2)c1=O = 7.77
• CC(C)n1cc(C(=O)Nc2ccc(Oc3ncnc4c3CCN(CC(=O)N3CCN(C)CC3)C4)c(F)c2)c(=O)n(-c2ccc(F)cc2)c1=O = 7.11
